Data origin: PubChem BioAssay

experiment: CREB reporter modulators under forskolin, primary screen, cell-based, PC12, CRE-LacZ reporter, forskolin-stimulated (AID 1146); conditions: luminescence, 4.5 h, higher = more signal, called active from +8 up or from −8 down;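 note: PC12 cells with 6xCRE LacZ reporter stimulated by forskolin 10 µM; beta-galactosidase reporter signal reflecting CREB driven transcription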
measuredParameter: z-score
Please respond with just the number, no unit label.

A selection of reference data follows.
1) CCOC(=O)C[C@H]1[C@H](OC(=O)c2ccccc2-c2ccccc2)[C@@H](NC(=O)CC(C)C)c2cc(OCCCO)ccc2N1C(=O)c1ccccc1 : -0.103
2) CC(C)C[C@@H]1NC(=O)[C@@H]2C[C@H](C(=O)NCCCCCCNC(=O)CS)[C@H](c3ccc(O)cc3)N2C1=O : -0.439
3) CN(C)CCCCCCNC(=O)[C@@H]1C[C@@H]2C(=O)N[C@@H](CCCC[N+](C)(C)C)C(=O)N2[C@@H]1c1cccc(OCCO)c1 : -0.416
4) COC(=O)[C@@]1(Cc2ccc(F)cc2)[C@H]2c3cc(C(=O)N(C)C)n(Cc4cccc5ccccc45)c3C[C@H]2CN1C(=O)c1ccccc1 : 0.287
5) COC(=O)[C@@]1(Cc2ccc(F)cc2)[C@H]2c3cc(C(=O)N(C)C)n(Cc4ccsc4Br)c3C[C@H]2CN1C(=O)c1ccccc1 : -0.0932
6) CCCCC(=C=CC[C@H](O)c1cccc(OCCO)c1)C[C@H](O)c1cc(Cl)cc(Cl)c1O : 0.0904
7) CC[C@@H](O[Si](C#C[Si](C(C)C)(C(C)C)C(C)C)(C(C)C)C(C)C)c1cn(Cc2cccc(Cl)c2)nn1 : -0.168
8) C=CCOC(=O)[C@@H]1[C@H]2C(=O)O[C@H](c3ccccc3)[C@H](c3ccccc3)N2[C@H](c2ccc(OCCOC(=O)[C@@H]3C[C@@H]4C(=O)N[C@@H](CC(C)C)C(=O)N4[C@@H]3c3ccc(O)cc3)cc2)[C@@]12C(=O)Nc1ccc(I)cc12 : -1.23

Given the compound `CN(C)CCCC[C@@H]1NC(=O)[C@H]2C[C@@H](C(=O)NCCCCCCNC(=O)CS)[C@@H](c3cccc(OCCO)c3)N2C1=O` , what is its reported z-score?
-1.09

Given the compound `COc1ccc([Si](C)(C)[C@@H]2[C@@H](CC(=O)N3Cc4ccccc4C[C@H]3CO)O[C@]3(C(=O)N(Cc4ccc(I)cc4)c4ccccc43)[C@H]2C)cc1` , what is its reported z-score?
0.0658

Given the compound `Cc1ccc(S[C@]2(C(=O)NCCN3CCOCC3)CC(=O)N(C(C)C)[C@@H]2c2ccc(CO)cc2I)cc1` , what is its reported z-score?
-0.395

Given the compound `C=C(/C=C\CNS(=O)(=O)c1ccc(C)cc1)[C@H](O)[C@H]1CCCN1S(=O)(=O)c1ccccc1[N+](=O)[O-]` , what is its reported z-score?
0.121

Given the compound `C=CCOC(=O)[C@@H]1[C@H]2C(=O)O[C@H](c3ccccc3)[C@H](c3ccccc3)N2[C@H](c2ccc(OCCOC(=O)[C@H]3C[C@H]4C(=O)N[C@@H](CCCCN(C)C)C(=O)N4[C@H]3c3cccc(OCCO)c3)cc2)[C@@]12C(=O)Nc1ccccc12` , what is its reported z-score?
-0.647

====

test: MM1S cell viability effects, profiling panel, calcein-AM fluorescence, 48 h, basal (AID 1165); conditions: higher = more signal;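 note: viability of MM1S multiple myeloma cells under basal unstimulated conditions; test concentration not given here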
Here, each record is paired with measured z-score data.
Please respond with just the number, no unit label.

A selection of reference data follows.
1. COCCOC(=O)N1C(=O)[C@@]2(c3cc(C#CCNC(N)=O)ccc31)[C@H](C(=O)N1CCN(c3ncccn3)CC1)[C@H]1C(=O)O[C@H](c3ccccc3)[C@H](c3ccccc3)N1[C@@H]2c1ccc(O)cc1 : 0.445
2. COc1cc2c(cc1OC)CN(C(=O)[C@@H]1[C@H]3C(=O)O[C@H](c4ccccc4)[C@H](c4ccccc4)N3[C@H](c3ccc(O)cc3)[C@@]13C(=O)Nc1ccc(C#CC4=CCCCC4)cc13)CC2 : -0.126
3. CC[C@@H](O[Si](C#C[Si](C(C)C)(C(C)C)C(C)C)(C(C)C)C(C)C)c1cn([C@H](CO)Cc2ccccc2)nn1 : 0.297
4. COc1ccc([Si](C)(C)[C@@H]2[C@@H](CC(=O)N3Cc4ccccc4C[C@H]3CO)O[C@]3(C(=O)N(Cc4ccc(I)cc4)c4ccccc43)[C@H]2C)cc1 : -1.98
5. C=CCNC(=O)[C@H]1[C@@H]2C(=O)O[C@@H](c3ccccc3)[C@@H](c3ccccc3)N2[C@@H](c2ccc(O)cc2)[C@]12C(=O)Nc1ccc(C#CCC(C(=O)OC)C(=O)OC)cc12 : -2.95

Given the compound `O=C(N1CCOCC1)[C@]1(CCS(=O)(=O)c2ccccc2)N=C(c2ccc(OCCCO)cc2)O[C@@H]1c1ccccc1` , what is its reported z-score?
-0.345

====

experiment: COS7 lysate on small-molecule microarray, probe aHis, 635 nm (AID 1123); conditions: COS7 cell lysate, fluorescence, higher = more signal;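 note: z-score combines 667nm fluorescence intensity with signal-to-noise per printed compound spot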
Here, each record is paired with measured composite z-score data.
Please respond with just the number, no unit label.

A selection of reference data follows.
1) CCCC=C(CCC)[C@@H](NC(=O)c1ccc(C(=O)OC)cc1)c1ccc(C(=O)OC)cc1 : 2.45
2) CC(C)(C)OC(=O)CC[C@@]1(C(N)=O)N=C(c2ccc(OCCCO)cc2)O[C@@H]1c1ccccc1CN=[N+]=[N-] : 3.13

Given the molecule `[N-]=[N+]=NCc1ccccc1[C@H]1OC(c2ccc(OCCCO)cc2)=N[C@@]1(Cc1ccccc1N=[N+]=[N-])C(N)=O` , what is its reported composite z-score?
2.72

Given the molecule `C=C[C@H](OC)[C@@H](O)c1ccc(OC)c(O)c1` , what is its reported composite z-score?
-0.651

Given the molecule `COCCOC(=O)N1C(=O)[C@@]2(c3cc(C#CCCO)ccc31)[C@H](C(=O)N1CCN(c3ncccn3)CC1)[C@H]1C(=O)O[C@H](c3ccccc3)[C@H](c3ccccc3)N1[C@@H]2c1ccc(OCCO)cc1` , what is its reported composite z-score?
2.13

Given the molecule `CC(C)[Si](C#Cc1ccccc1)(O[C@H](c1ccccc1)c1cn(Cc2ccccc2)nn1)C(C)C` , what is its reported composite z-score?
0.467

Given the molecule `COC(=O)[C@]1(Cc2ccccc2N=[N+]=[N-])N=C(c2ccc(OCCCO)cc2)O[C@@H]1c1ccccc1CN=[N+]=[N-]` , what is its reported composite z-score?
1.36

====

Here, each record is paired with measured z-score data.
experiment: cell viability in Huh7 cells, primary screen, cytotoxicity control for HCV replication inhibitor project, CellTiter-Glo luminescence, basal, 48 h (AID 1143); conditions: Huh7 HCV replicon, higher = more signal, called active from +8 up or from −8 down;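 note: Huh7 hepatoma cells carrying a hepatitis C replication reporter with no stimulus; test concentration not given here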
Please respond with just the number, no unit label.

1) C=CC[C@H](O)c1ccc(O)c(F)c1 : -0.48

Given the molecule `Cc1ccc(N2C(=O)c3ccccc3[C@@H](C(=O)NCCN3CCOCC3)[C@@H]2c2ccc(CO)cc2)nc1` , what is its reported z-score?
0.209

Given the molecule `COC(=O)[C@@]1(Cc2ccc(F)cc2)[C@H]2c3cc(C(=O)N(C)C)n(Cc4ccsc4Br)c3C[C@H]2CN1C(=O)c1ccccc1` , what is its reported z-score?
-1.49

Given the molecule CC1C2C(CCCO)=CC(C3C(=O)N(C)C(=O)C23)N1Cc1cccc(OC(F)(F)F)c1 (stereo not given) , what is its reported z-score?
-0.293

Given the molecule CC(C)c1ccc(NN2C(C(O)c3ccccc3)C=CC3C(=O)N(c4ccccc4)C(=O)C32)cc1 (stereo not given) , what is its reported z-score?
-0.0828

Given the molecule `COc1ccc(C(=O)Nc2ccc(CN3C(=O)[C@@]4(O[C@@H](CC(=O)N(CCO)Cc5ccccc5)[C@H]([Si](C)(C)c5ccc(OC)cc5)[C@H]4C)c4ccccc43)cc2)cc1` , what is its reported z-score?
-5.7

Given the molecule `CCOC(=O)C[C@H]1[C@H](OC(=O)c2cc3ccccc3oc2=O)[C@@H](NC(=O)Cc2ccc(OC)cc2)c2cc(OCCCO)ccc2N1C(=O)Cc1ccc(OC)cc1` , what is its reported z-score?
-1.5

Given the molecule `COc1ccc(C(=O)Nc2cccc(CN3C(=O)[C@]4(O[C@H](CC(=O)N(CCO)Cc5ccccc5)[C@@H]([Si](C)(C)c5ccc(OC)cc5)[C@@H]4C)c4ccccc43)c2)cc1` , what is its reported z-score?
-4.13

Given the molecule `CO[C@H]1O[C@H](CO)[C@@H](OC(=O)Nc2ccccc2)[C@@H]2OC(=O)[C@@H](Cc3ccccc3)C/C=C/C[C@H](Cc3ccccc3)C(=O)O[C@@H]12` , what is its reported z-score?
-0.0611

====

test: P. aeruginosa biofilm formation inhibitors, primary screen, strain PAO1, LB-PBS medium, absorbance 600 nm (AID 1176); note: test concentration not given here; settings: P. aeruginosa PAO1 growth/biofilm, A600, 12 h; higher = more signal
measuredParameter: z-score
Please respond with just the number, no unit label.

1. COCCOC(=O)N1C(=O)[C@@]2(c3cc(C#CC4=CCCCC4)ccc31)[C@H](c1ccc(O)cc1)N1[C@H](c3ccccc3)[C@H](c3ccccc3)OC(=O)[C@H]1[C@@H]2C(=O)N1CCc2cc(OC)c(OC)cc2C1 : 0.902
2. COc1ccc(C(O)C2C=CC3C(=O)N(c4ccccc4)C(=O)C3N2Nc2ccccc2F)c2ccccc12 (centres undefined) : 1.15
3. COC(=O)C(CC#Cc1ccc2c(c1)[C@]1(C(=O)N2)[C@H](C(N)=O)[C@H]2C(=O)O[C@H](c3ccccc3)[C@H](c3ccccc3)N2[C@@H]1c1ccccc1OCCO)C(=O)OC : 2.35
4. COCCCNC(=O)[C@]1(Cc2ccccc2N=[N+]=[N-])N=C(c2ccc(OCCCO)cc2)O[C@@H]1c1ccccc1 : -0.444
5. O=C1NC(=O)C2C1C=CC(C(O)C(O)CO)N2Nc1ccccn1 (centres undefined) : 1.11

Given the compound `CCCC=C(CCC)[C@@H](NC(=O)c1ccc(C(=O)OC)cc1)c1ccc(C(=O)OC)cc1` , what is its reported z-score?
1.1
